B1: ADD1 (parent)
chain: GEGTGSPPKWQIGEQEFEALMRML

# Variants of: B1
# ASSAY_COMMENT: protein stability index of a GFP-peptide fusion (GPS, HEK-293T) (PSI 1-6); higher = more stable;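 also: lentivirally expressed fusions sorted by FACS into six bins by GFP to DsRed ratio, PSI derived from sequencing read proportions per bin multiplied by bin number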
# CONDITION_SET: c terminus: a fixed tail appended
PARAMETER: protein stability index
Respond using a number only.

Example cases with answers are listed next.
GEGTGSPPKQQIGEQEFEALMRML [W10Q] : 3.5
GEGTGSPPKWQHGEQEFEALMRML [I12H] : 3.75
GEGTGSPPKWQIGEQEFEILMRML [A19I] : 2.39
GEGTGSPPKRQIGEQEFEALMRML [W10R] : 4.22
GEGTGSPPKWQIGGQEFEALMRML [E14G] : 2.92

Lookup: Complete the entry with protein stability index for GEGTGSPPKWQIGEQEFEAKMRML [L20K]
Found: 4.4

Lookup: Consider the variant GEGTGKPPKWQIGEQEFEALMRML [S6K] and give its recorded protein stability index.
Found: 2.12

Lookup: Note protein stability index for the variant shown: GEGSGSPPKWQIGEQEFEALMRML [T4S]
Found: 3.08

Lookup: Kindly indicate its recorded protein stability index. Item: GEGTGSPPKWQIGEQEFVALMRML [E18V]
Found: 2.3

Lookup: Determine its reported protein stability index: GEGTGSPPKWQGGEQEFEALMRML [I12G]
Found: 4.08

These data points were gathered from the supplement of paper PMC10567573.
